Values were extracted from patent US20250011363A1.

- test.system: acetylcholine receptor
- measurement.protocol: SPR, AchR immobilized on CM5 chip, peptide at 10 uM
endpoint: Binding affinity (RU)

Known Binding affinity (RU) results, listed for orientation:
> print(dat)
                binder  test.value
1     RADFK [5mer-712]          18
2  KKCNAK [6mer-1-814]          15
3  RKCDVR [6mer-1-855]          15
4  KRMWFK [6mer-1-856]          30
5  KKTTMK [6mer-1-830]          33

(I) RKDHMK [6mer-1-812]
(II) KEDNK [5mer-1002]
# input In the pair I and II , the larger recorded Binding affinity (RU) belongs to which? Indicate which entry you chose by stating its label.
# output I
